Data provenance is paper PMC11584596.

Measured MIC^1, listed per entry for reference.
# Test system: methicillin-resistant Staphylococcus epidermidis (MRSE)
# test: Antimicrobial susceptibility
# Assay type: cell-based
# recorded.conditions: MRSE isolate from sample 1 of periprosthetic fluid at diagnosis

smiles.record: CN(C)[C@@H]1C(O)=C(C(N)=O)C(=O)[C@@]2(O)C(O)=C3C(=O)c4c(O)cccc4[C@@](C)(O)[C@H]3C[C@@H]12
endpoint.label: MIC^1
reported.value: 1 µg/mL

smiles.record: CC[C@H]1OC(=O)[C@H](C)[C@@H](O[C@H]2C[C@@](C)(OC)[C@@H](O)[C@H](C)O2)[C@H](C)[C@@H](O[C@@H]2O[C@H](C)C[C@H](N(C)C)[C@H]2O)[C@](C)(O)C[C@@H](C)C(=O)[C@H](C)[C@@H](O)[C@]1(C)O
endpoint.label: MIC^1
reported.value: ≤ 0.25 µg/mL

smiles.record: C[C@@H]1O[C@@H]1P(=O)(O)O
endpoint.label: MIC^1
reported.value: ≤ 16 µg/mL

Here is the next item to consider.
[Q] Form: Entry = `CN(C)c1cc(NC(=O)CNC(C)(C)C)c(O)c2c1C[C@H]1C[C@H]3[C@H](N(C)C)C(O)=C(C(N)=O)C(=O)[C@@]3(O)C(O)=C1C2=O` | System = methicillin-resistant Staphylococcus epidermidis (MRSE) | MIC^1 = ____
[A] ≤ 0.25 µg/mL
